system-name: HiBit-WIZ fusion protein (Homo sapiens, UniProt O95785+Q96SW2)
Sequence (O95785 whole entry, the tested form may be a part): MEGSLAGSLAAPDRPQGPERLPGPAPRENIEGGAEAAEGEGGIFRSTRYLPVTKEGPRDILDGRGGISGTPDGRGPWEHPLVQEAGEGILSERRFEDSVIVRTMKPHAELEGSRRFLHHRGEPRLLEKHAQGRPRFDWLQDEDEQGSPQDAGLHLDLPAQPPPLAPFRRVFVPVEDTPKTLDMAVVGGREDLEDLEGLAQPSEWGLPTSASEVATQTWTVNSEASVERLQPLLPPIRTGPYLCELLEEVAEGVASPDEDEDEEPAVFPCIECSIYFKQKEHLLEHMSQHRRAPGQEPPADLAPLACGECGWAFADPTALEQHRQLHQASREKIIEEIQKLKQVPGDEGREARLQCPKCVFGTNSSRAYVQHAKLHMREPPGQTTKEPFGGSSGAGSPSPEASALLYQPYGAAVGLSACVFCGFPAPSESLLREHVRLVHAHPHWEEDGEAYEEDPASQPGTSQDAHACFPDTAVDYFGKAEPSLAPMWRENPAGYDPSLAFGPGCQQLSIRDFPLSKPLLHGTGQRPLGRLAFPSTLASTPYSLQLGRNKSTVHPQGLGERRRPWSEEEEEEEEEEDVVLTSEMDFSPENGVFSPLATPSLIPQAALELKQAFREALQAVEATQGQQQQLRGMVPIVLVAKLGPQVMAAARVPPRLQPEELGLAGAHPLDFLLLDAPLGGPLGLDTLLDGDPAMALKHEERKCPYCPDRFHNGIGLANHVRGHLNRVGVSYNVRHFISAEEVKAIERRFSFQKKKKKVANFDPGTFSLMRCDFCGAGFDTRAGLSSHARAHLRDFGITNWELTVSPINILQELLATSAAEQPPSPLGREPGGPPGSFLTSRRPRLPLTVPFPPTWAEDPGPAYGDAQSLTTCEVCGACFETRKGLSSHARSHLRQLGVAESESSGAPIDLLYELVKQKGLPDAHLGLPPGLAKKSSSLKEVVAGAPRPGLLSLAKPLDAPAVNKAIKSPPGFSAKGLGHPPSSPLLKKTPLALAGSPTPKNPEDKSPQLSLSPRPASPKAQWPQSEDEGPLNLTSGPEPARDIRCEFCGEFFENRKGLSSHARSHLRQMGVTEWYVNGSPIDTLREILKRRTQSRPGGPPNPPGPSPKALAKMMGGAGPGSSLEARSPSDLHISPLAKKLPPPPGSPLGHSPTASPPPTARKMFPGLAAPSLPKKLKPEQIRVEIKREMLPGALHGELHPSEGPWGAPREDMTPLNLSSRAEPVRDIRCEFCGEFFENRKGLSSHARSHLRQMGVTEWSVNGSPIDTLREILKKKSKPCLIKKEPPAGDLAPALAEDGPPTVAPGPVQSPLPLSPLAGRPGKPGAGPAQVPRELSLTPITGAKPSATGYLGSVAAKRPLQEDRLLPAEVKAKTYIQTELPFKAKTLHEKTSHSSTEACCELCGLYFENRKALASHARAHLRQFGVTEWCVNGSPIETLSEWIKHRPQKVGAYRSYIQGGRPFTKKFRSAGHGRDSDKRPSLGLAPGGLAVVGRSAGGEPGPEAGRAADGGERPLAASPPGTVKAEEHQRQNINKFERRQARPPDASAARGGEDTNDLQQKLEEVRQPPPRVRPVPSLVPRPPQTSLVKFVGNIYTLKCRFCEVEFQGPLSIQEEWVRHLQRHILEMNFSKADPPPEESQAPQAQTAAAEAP
Sequence (Q96SW2 whole entry, the tested form may be a part): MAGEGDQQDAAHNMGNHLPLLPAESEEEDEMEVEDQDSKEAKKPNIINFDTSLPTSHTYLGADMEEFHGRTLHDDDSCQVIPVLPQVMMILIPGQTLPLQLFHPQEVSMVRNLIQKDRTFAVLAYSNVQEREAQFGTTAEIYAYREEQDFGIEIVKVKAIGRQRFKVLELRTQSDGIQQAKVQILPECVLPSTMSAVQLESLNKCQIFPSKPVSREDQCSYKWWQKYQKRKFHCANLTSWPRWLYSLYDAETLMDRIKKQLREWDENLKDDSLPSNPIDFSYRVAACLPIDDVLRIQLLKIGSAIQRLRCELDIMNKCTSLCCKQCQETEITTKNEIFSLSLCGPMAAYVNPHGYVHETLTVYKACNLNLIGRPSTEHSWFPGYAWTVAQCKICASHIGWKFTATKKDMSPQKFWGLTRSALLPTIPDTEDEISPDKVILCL
Sequence (Q16531 whole entry partner, the tested form may be a part): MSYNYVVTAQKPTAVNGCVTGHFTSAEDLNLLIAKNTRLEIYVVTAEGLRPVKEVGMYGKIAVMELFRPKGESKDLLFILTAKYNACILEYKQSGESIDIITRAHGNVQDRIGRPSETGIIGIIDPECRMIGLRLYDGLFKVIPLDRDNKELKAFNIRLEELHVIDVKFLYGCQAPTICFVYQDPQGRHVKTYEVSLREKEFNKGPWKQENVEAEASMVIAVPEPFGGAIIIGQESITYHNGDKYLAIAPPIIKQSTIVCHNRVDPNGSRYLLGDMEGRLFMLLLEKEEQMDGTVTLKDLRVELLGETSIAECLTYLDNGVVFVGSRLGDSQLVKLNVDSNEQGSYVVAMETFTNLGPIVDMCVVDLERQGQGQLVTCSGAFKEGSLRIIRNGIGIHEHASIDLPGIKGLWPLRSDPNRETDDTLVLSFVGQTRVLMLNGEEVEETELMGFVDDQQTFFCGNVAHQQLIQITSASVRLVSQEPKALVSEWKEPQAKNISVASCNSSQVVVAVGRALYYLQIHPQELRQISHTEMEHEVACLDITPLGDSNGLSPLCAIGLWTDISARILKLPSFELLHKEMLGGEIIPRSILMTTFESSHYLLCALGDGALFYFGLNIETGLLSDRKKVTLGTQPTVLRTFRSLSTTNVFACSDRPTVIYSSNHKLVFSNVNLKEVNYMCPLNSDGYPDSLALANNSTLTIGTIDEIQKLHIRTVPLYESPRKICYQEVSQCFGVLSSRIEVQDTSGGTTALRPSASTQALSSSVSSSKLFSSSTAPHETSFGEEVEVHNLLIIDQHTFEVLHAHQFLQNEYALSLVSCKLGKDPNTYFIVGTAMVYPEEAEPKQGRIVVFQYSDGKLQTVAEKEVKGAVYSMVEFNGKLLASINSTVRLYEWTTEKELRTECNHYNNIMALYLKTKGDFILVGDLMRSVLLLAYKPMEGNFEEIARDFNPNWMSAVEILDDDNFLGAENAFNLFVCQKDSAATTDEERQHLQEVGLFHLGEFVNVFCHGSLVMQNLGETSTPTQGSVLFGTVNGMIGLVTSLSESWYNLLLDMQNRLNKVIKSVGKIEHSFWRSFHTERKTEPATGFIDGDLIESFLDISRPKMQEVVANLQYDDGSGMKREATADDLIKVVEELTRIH
test-description: Quantification of WIZ protein levels in HiBit tag fusion protein assay (WIZ HiBit assay in 293T cells)
Format: cell-based
Design: dose or concentration left out as unconfirmed
condition-summary: HEK-293T, 100 minus Amax; 293T cells; read-out: % degradation of WIZ (100-Amax)
measurement-name: Dmax (%)
Provide the reading as a plain figure in %.

See these solved cases before continuing.
O=C1CCC(N2Cc3cc(OC[C@H]4CCCCN4Cc4ccc(C(=O)N5CCCC5)cc4)ccc3C2=O)C(=O)N1 (stereo partly shown) [Compound I-50bs] :: 94.5
Cc1nnsc1CN1CCCC[C@@H]1COc1ccc2c(c1)CN(C1CCC(=O)NC1=O)C2=O (stereo partly shown) [Compound I-50ep] :: 12.4
O=C1CCC(N2Cc3cc(OC[C@@H]4CCCCN4C(=O)c4cnc(N5CCCCC5)s4)ccc3C2=O)C(=O)N1 (stereo partly shown) [Compound I-72fi] :: 70.2

// next entry
Lookup: I am curious: what Dmax value has been reported for O=C1CCC(N2Cc3cc(OC[C@@H]4CCCCN4C(=O)CN4CCCCC4)ccc3C2=O)C(=O)N1 (stereo partly shown) [Compound I-72jq] ?
Found: 11.7

----------
system-name: HiBit-WIZ fusion protein (Homo sapiens, UniProt O95785+Q96SW2)
test-description: Quantification of WIZ protein levels in HiBit tag fusion protein assay (WIZ HiBit assay in 293T cells)
Assay type: cell-based
condition-summary: HEK-293T, DMSO-normalized, curve-fitted percentage of WIZ-HiBit remaining at 25 uM; 293T cells; read-out: WIZ Amax
Reported remaining activity at up to 25 µM values are given for each entry in this list.
Report field: quantity (unit follows the number).

Lookup: I am curious: what remaining activity at up to 25 µM value has been reported for O=C1CCC(N2Cc3cc(OC[C@@H]4CCCCN4Cc4cn[nH]c4)ccc3C2=O)C(=O)N1 (stereo partly shown) [Compound I-50cc] ?
Found: 28.3%

Lookup: I am curious: what remaining activity at up to 25 µM value has been reported for O=C1CCC(N2Cc3cc(OC[C@H]4CCCCN4Cc4ccncc4)ccc3C2=O)C(=O)N1 (stereo partly shown) ?
Found: 31.3%

Lookup: I am curious: what remaining activity at up to 25 µM value has been reported for O=C1CCC(N2Cc3cc(OC[C@H]4CCCCN4CC4CC5(COC5)C4)ccc3C2=O)C(=O)N1 (stereo partly shown) ?
Found: 12.9%

Lookup: I am curious: what remaining activity at up to 25 µM value has been reported for O=C1CCC(N2Cc3cc(OC[C@H]4CCCCN4Cc4cnn(Cc5ccccc5)c4)ccc3C2=O)C(=O)N1 (stereo partly shown) [Compound I-50bv] ?
Found: 0.1%

----------
system-name: HiBit-WIZ fusion protein (Homo sapiens, UniProt O95785+Q96SW2)
test-description: Quantification of WIZ protein levels in HiBit tag fusion protein assay (WIZ HiBit assay in 293T cells)
Type: cell-based
condition-summary: HEK-293T, DMSO-normalized, curve-fitted percentage of WIZ-HiBit remaining at 25 uM; 293T cells; read-out: WIZ Amax
So basically, if remaining activity at up to 25 µM comes in under 30% it's label 1, and if it's 30% or more it's label 0.

CC(C)n1nccc1C(=O)N1CCCC[C@H]1COc1ccc2c(c1)CN(C1CCC(=O)NC1=O)C2=O (stereo partly shown) [Compound I-72ez] :: label 0
CC(C)(C)N1CCN(c2ccc(CN3CCCC[C@@H]3COc3ccc4c(c3)CN(C3CCC(=O)NC3=O)C4=O)cc2)CC1 (stereo partly shown) [Compound I-229] :: label 1
O=C1CCC(N2Cc3cc(OC[C@H]4CCCCN4Cc4ccc(N5CCCC5)nc4)ccc3C2=O)C(=O)N1 (stereo partly shown) [Compound I-50es] :: label 1
O=C1CCC(N2Cc3cc(OC[C@H]4CCCCN4Cc4ccccc4N4CCN(CC5CCOCC5)CC4)ccc3C2=O)C(=O)N1 (stereo partly shown) [Compound I-108] :: label 1
O=C1CCC(N2Cc3cc(OC[C@H]4CCCCN4Cc4cnc5ccccc5c4)ccc3C2=O)C(=O)N1 (stereo partly shown) [Compound I-150] :: label 1
O=C1CCC(N2Cc3cc(OC[C@H]4CCCCN4Cc4ccc(OCCN5CCOCC5)cc4)ccc3C2=O)C(=O)N1 (stereo partly shown) [Compound I-50cg] :: label 1

Then there is this compound:
Lookup: Would you kindly verify if remaining activity at up to 25 µM of CC(C)(C#N)c1cc(C(=O)N2CCCC[C@H]2COc2ccc3c(c2)CN(C2CCC(=O)NC2=O)C3=O)ccn1 (stereo partly shown) [Compound I-72be] is strictly less than 30%?
Found: label 0
